Numbers sourced from ChEMBL document CHEMBL1145498.

Provide the recorded ΔTm for the entries that follow.
molecular target: Calcium/calmodulin-dependent protein kinase type II subunit beta (Homo sapiens) (UniProt Q13554)
Sequence (Q13554 whole entry): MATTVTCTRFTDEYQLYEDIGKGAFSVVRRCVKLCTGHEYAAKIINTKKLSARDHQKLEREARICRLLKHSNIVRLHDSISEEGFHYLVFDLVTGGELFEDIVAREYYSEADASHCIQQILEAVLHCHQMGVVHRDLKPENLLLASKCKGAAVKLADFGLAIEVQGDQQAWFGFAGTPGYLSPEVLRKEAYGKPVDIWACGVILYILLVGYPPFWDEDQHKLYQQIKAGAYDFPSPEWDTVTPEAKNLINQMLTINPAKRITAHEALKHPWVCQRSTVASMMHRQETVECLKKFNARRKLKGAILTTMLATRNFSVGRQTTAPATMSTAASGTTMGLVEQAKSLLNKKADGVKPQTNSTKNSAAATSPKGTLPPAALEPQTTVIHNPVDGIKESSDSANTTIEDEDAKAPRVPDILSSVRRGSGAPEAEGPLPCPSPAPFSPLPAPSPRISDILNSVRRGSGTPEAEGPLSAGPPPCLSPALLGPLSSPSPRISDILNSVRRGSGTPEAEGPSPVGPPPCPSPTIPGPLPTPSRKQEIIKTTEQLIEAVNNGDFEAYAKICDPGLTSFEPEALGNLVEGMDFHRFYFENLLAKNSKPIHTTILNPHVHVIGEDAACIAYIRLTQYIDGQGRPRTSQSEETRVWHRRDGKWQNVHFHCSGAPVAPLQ
Answers are plain numbers, in °C.

1) CCOc1cc2ncnc(Nc3cccc(Br)c3)c2cc1OCC : 0.8

Respectfully, I request ΔTm for each entry included below.
1. C[S+]([O-])c1ccc(CSc2nc(-c3ccc(F)cc3)c(-c3ccncc3)[nH]2)cc1 (stereo not given)
2. O=C1Nc2ccc(S(=O)(=O)O)cc2/C1=C1/Nc2ccccc2/C1=N\O
3. Oc1cc(O)cc(/C=C/c2ccc(O)c(O)c2)c1
4. NCCNc1ncc(C(N)=O)c(Nc2cccc(C(F)(F)F)c2)n1

-- reply
0
1.8
-0.2
0.4

Respectfully, I request ΔTm for each entry included below.
1. CCCCc1c(-c2ccc(O)cc2)[nH]c2nccnc12
2. COc1ccc(CNc2nc(N(CCO)CCO)nc3c2ncn3C(C)C)cc1
3. N#CCCc1ccc2c(c1)-c1[nH]c3ccc([N+](=O)[O-])cc3c1CC(=O)N2

-- reply
0.5
0.3
0.2

Respectfully, I request ΔTm for each entry included below.
1. CC(C)c1nn(-c2c(Cl)cccc2Cl)c2nc(Cc3ccc(OCCO)cc3)[nH]c(=O)c12
2. O=C1NC(=O)C(c2c[nH]c3ccccc23)=C1c1c[nH]c2ccccc12

-- reply
1: 0.9; 2: 1.2

###

Provide the recorded ΔTm for the entries that follow.
biological target: Lymphokine-activated killer T-cell-originated protein kinase (Homo sapiens) (UniProt Q96KB5)
Sequence (Q96KB5 whole entry): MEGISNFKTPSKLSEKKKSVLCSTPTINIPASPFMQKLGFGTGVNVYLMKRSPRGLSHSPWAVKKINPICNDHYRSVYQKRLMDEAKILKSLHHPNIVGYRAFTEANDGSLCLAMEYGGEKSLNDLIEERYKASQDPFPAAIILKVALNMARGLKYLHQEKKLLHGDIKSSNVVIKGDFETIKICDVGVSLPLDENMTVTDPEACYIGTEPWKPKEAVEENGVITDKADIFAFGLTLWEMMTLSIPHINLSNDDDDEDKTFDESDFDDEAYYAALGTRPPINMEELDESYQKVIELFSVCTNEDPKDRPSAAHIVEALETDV
Give bare numbers, in °C.

# count of solved cases: 8
1. N#CC(C#N)=Cc1ccc(O)c(O)c1 [TYRPHOSTIN 23] : 0.4
2. CC(C)(C)c1nc2c3ccc(F)cc3c3c(=O)[nH]ccc3c2[nH]1 : -0.6
3. CC(C)N(CCO)c1nc(Nc2cccc(Cl)c2)c2ncn(C(C)C)c2n1 : 0
4. Nc1ncnc2c1c(I)cn2[C@@H]1O[C@H](CO)[C@@H](O)[C@H]1O : 0
5. Nc1n[nH]c2nc3ccccc3nc12 [QUINOXALINE1] : 0.5
6. CC(C)n1cnc2c(NCc3ccccc3)nc(NCCCO)nc21 : 0.2
7. OC[C@H]1O[C@@H](n2cnc3cc(Cl)c(Cl)cc32)[C@H](O)[C@@H]1O : 0.6
8. O=C1Cc2c([nH]c3ccc([N+](=O)[O-])cc23)-c2ccccc2N1 : 0.1

Respectfully, I request ΔTm for each entry included below.
1. Oc1cccc(-c2nc(N3CCOCC3)c3oc4ncccc4c3n2)c1
2. O=C1NC(=O)C(c2c[nH]c3ccccc23)=C1c1c[nH]c2ccccc12
3. CN(C)c1ccc(CC2C(=O)Nc3ccccc32)cc1 (stereo unspecified)

-- reply
1. 0.5
2. -0.2
3. 0.1

###

Form: system (Serine/threonine-protein kinase PLK1 (Homo sapiens) (UniProt P53350)), quantity (ΔTm), values below.
Give bare numbers, in °C.

# count of solved cases: 8
1) CSc1nc(-c2ccc(F)cc2)c(-c2ccnc(NC(C)c3ccccc3)c2)[nH]1 (racemic) : 0.9
2) O=C1NC(=O)c2c1c1c3ccccc3n3c1c1c2c2ccccc2n1C1CCC3O1 : 4
3) O=C1C(Cl)=C(N2C(=O)CCC2=O)C(=O)c2ccccc21 : -0.2
4) Cc1nc(N)sc1-c1ccnc(Nc2cccc([N+](=O)[O-])c2)n1 : 4.6
5) N#CCCc1ccc2c(c1)-c1[nH]c3ccc([N+](=O)[O-])cc3c1CC(=O)N2 : 0.4
6) CC(C)c1nn(-c2c(Cl)cccc2Cl)c2nc(Cc3ccc(OCCO)cc3)[nH]c(=O)c12 : 1.4
7) O=c1c2ccccc2[nH]c(=S)n1CCN1CCC(=C(c2ccc(F)cc2)c2ccc(F)cc2)CC1 : 0.6
8) O=S(=O)(NCCNC/C=C/c1ccc(Br)cc1)c1cccc2cnccc12 : 1

Respectfully, I request ΔTm for each entry included below.
1. Cc1cc2ncc(-c3ccccc3)nc2cc1C
2. Cc1cc(C=C2C(=O)C=CC2=O)cc(C)c1O

-- reply
0.7
0.6

Respectfully, I request ΔTm for each entry included below.
1. CN(C)C[C@@H]1CCn2cc(c3ccccc32)C2=C(C(=O)NC2=O)c2cn(c3ccccc23)CCO1
2. N=C(N)NCCNS(=O)(=O)c1cccc2cnccc12
3. O=C1NC(=O)C(c2cn(CCCn3ccnc3)c3ccccc23)=C1Nc1ccccc1

-- reply
1: -0.9; 2: 0.3; 3: 1.2

Respectfully, I request ΔTm for each entry included below.
1. CN(C)CCCn1cc(C2=C(c3c[nH]c4ccccc34)C(=O)NC2=O)c2ccccc21
2. Nc1cc2ncnc(Nc3cccc(Br)c3)c2cc1N
3. CC(C)(C)c1nc2c3ccc(F)cc3c3c(=O)[nH]ccc3c2[nH]1
4. COc1ccc(Cl)cc1NC(=O)Nc1cc(C)nc2ccccc12
5. CCOC(=O)c1cnc2oc3ccc(O)cc3c2c1-c1ccccc1
6. Cc1c2ccncc2c(C)c2c1[nH]c1ccccc12

-- reply
[1, -1.4, 11.9, 0.9, 0.8, 3.9]

-- ask Please report the recorded ΔTm for COc1nccc(-c2c(-c3ccc(F)cc3)ncn2[C@H]2CC[C@H](O)CC2)n1 .
-- reply -0.2
